Tested on: HT-29 cells
method.notes: Cell cycle analysis (PI, flow cytometry)
Assay type: cell-based, human
condition.description: 250 nM for 24 h (figure legend)
Outcome: Fulfilled for Percentage of HT-29 cells in G1 phase of at least 6%; Not fulfilled for anything lower.

Task item: In plain terms: is recorded Percentage of HT-29 cells in G1 phase at least 6% for COc1cc2oc(C(=O)c3ccccc3)c(C)c2cc1/C=C/C(=O)NO ?
Reply: Fulfilled

Task item: // inclusive: Percentage of HT-29 cells in G1 phase at least 6%? input: COc1ccc(/C=C\c2cc(OC)c(OC)c(OC)c2)cc1O [CA-4, combretastatin A-4, reference compound]
Reply: Fulfilled

Task item: Can CC(/C=C/C(=O)NO)=C\[C@@H](C)C(=O)c1ccc(N(C)C)cc1 [TSA, Trichostatin, reference compound] be said to have Percentage of HT-29 cells in G1 phase at or above 6%?
Reply: Fulfilled

Task item: Tell me whether Percentage of HT-29 cells in G1 phase is at least 6% here: COc1cc2oc(C(=O)c3cc(OC)c(OC)c(OC)c3)cc2cc1/C=C/C(=O)NO
Reply: Not fulfilled

---

assay.target: human recombinant HDAC6 (Homo sapiens)
Construct: purchased BPS Bioscience 50056
Sequence (Q9UBN7 whole entry): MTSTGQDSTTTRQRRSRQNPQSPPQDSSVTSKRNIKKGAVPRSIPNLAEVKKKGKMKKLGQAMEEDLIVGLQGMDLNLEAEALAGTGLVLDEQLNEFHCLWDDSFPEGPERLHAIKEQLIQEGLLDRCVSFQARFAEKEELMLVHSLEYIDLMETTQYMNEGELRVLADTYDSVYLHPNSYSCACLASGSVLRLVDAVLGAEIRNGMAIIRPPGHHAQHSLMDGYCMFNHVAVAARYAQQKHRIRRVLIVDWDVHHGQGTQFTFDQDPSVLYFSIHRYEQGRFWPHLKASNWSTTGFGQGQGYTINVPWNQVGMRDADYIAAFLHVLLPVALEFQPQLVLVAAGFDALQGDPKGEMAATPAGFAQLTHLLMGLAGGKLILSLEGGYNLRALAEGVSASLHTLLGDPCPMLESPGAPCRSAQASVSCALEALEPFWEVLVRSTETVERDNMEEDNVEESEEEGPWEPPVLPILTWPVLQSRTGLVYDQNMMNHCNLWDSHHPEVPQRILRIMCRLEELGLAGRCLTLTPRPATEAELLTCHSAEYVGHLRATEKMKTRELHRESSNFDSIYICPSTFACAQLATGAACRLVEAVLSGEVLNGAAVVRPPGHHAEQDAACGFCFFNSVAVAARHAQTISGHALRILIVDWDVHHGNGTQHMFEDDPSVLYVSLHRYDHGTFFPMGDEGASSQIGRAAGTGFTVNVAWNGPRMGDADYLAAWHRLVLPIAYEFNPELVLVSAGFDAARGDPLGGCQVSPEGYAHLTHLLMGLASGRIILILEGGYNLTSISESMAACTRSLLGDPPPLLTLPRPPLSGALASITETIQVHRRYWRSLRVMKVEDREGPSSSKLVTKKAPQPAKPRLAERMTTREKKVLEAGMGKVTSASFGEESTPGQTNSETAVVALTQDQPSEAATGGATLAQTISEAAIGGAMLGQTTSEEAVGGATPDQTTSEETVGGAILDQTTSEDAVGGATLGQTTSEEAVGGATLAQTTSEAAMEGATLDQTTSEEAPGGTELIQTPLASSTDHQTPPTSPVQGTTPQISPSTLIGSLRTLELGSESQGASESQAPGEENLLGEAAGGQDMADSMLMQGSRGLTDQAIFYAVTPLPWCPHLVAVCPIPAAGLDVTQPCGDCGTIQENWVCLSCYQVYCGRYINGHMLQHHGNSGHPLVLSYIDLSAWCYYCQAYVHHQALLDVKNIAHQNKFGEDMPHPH
method.notes: HDAC isoform inhibition, fluorogenic substrate, HDAC6
Assay type: biochemical
condition.description: mean ± SE, read-out: IC50 (µM) hHDAC6
assay.readout: IC50

Task item: Give recorded IC50. COc1cc2oc(C(=O)c3ccccc3)c(C)c2cc1/C=C/C(=O)NO
Reply: 10.2 µM

Task item: Supply recorded IC50 for COc1cc2oc(C(=O)c3cc(OC)c(OC)c(OC)c3)cc2cc1/C=C/C(=O)NO here.
Reply: 5.16 µM

Task item: Identify the reported IC50 for the following entry. COc1cc2oc(C(=O)c3ccc(OC)c(OC)c3)c(C)c2cc1/C=C/C(=O)NO
Reply: > 30 µM

Task item: Given COc1cc2oc(C(=O)c3ccccc3OC)c(C)c2cc1/C=C/C(=O)NO , respond with its IC50.
Reply: 6.12 µM

Task item: Please list IC50 recorded for the compound COc1cccc(C(=O)c2oc3cc(OC)c(C#CC(=O)NO)cc3c2C)c1 [Compound 11e]
Reply: > 30 µM

Task item: Provide measured IC50 value, entry: COc1cc2oc(C(=O)c3cc(OC)c(OC)c(OC)c3)c(C)c2cc1C#CC(=O)NO [Compound 11a]
Reply: > 30 µM

Task item: For COc1ccc(C(=O)c2oc3cc(OC)c(/C=C/C(=O)NO)cc3c2C)cc1 , write its IC50.
Reply: 12.6 µM

Task item: Note IC50 for the compound shown: COc1cccc(C(=O)c2oc3cc(OC)c(/C=C/C(=O)NO)cc3c2C)c1
Reply: 17.1 µM

Task item: Using the record for COc1cc(OC)cc(C(=O)c2oc3cc(OC)c(C#CC(=O)NO)cc3c2C)c1 [Compound 11c] , state its measured IC50.
Reply: 13.8 µM

Task item: Return the recorded IC50 value; entry: COc1cc(OC)cc(C(=O)c2oc3cc(OC)c(/C=C/C(=O)NO)cc3c2C)c1
Reply: 12.5 µM

---

Tested on: HeLa cells
method.notes: In vitro growth inhibition (resazurin, 72 h), HeLa
Type: cell-based
condition.description: Homo sapiens, concentration inhibiting tumor cell proliferation by 50%, mean ± SE
assay.readout: log10(IC50) (log10 of the value in nM)
Give log10 of IC50, with IC50 taken in nM.

Task item: Identify measured log10(IC50) associated with COc1cccc(C(=O)c2oc3cc(OC)c(/C=C/C(=O)NO)cc3c2C)c1 [Compound 6e]
Reply: 0.78

Task item: Answer with the recorded log10(IC50) for the compound listed here: COc1ccc2c(C)c(C(=O)c3cc(OC)c(OC)c(OC)c3)oc2c1 [TR187, reference compound]
Reply: 0.93

Task item: Look up and state reported log10(IC50) for COc1cc2oc(C(=O)c3ccccc3)c(C)c2cc1/C=C/C(=O)NO [Compound 6g]
Reply: -0.44

Task item: Let me know recorded log10(IC50) for COc1cc2oc(C(=O)c3ccc(OC)c(OC)c3)c(C)c2cc1/C=C/C(=O)NO [Compound 6b] , thanks.
Reply: 1.57

Task item: For the compound COc1ccc(/C=C\c2cc(OC)c(OC)c(OC)c2)cc1O [CA-4, combretastatin A-4, reference compound] , report log10(IC50).
Reply: 0.66

Task item: Consider the compound COc1cc2oc(C(=O)c3cc(OC)c(OC)c(OC)c3)cc2cc1/C=C/C(=O)NO [Compound 6i] and give its recorded log10(IC50).
Reply: 1.17

Where do the numbers come from? From paper PMC11277476.
